Data provenance: patent US20260327211A1

assay: CYP inhibition / time-dependent inhibition, CYP3A4_Midazolam; format: in vitro ADME, human; settings: human, liver microsomes, role: inhibitor; (+)NADPH pre-incubation; substrate midazolam 2.0 μM; read-out: IC50 (+)NADPH CYP3A4_Midazolam
ENDPOINT NAME: IC50 (µM)
Give the quantity in µM, number only.

Task: Hello, please tell me recorded IC50 for this one: O=C(Cc1cncc(-n2cc(Cl)c3cc(Cl)cc(Cl)c32)c1)N[C@@H]1COC[C@H]1O [Compound 661]
Result: 19.5

====

target: hKv7.2/3 (Homo sapiens, UniProt O43525+O43526); construct: host or cells: CHO; assay: Kv7.2/7.3 HCS, FLIPR potassium (thallium) assay, CHO/hKv7.2/3; assay type: cell-based; conditions: Table 1; read-out: Kv7.2/7.3 IC50
Sequence (O43525 whole entry): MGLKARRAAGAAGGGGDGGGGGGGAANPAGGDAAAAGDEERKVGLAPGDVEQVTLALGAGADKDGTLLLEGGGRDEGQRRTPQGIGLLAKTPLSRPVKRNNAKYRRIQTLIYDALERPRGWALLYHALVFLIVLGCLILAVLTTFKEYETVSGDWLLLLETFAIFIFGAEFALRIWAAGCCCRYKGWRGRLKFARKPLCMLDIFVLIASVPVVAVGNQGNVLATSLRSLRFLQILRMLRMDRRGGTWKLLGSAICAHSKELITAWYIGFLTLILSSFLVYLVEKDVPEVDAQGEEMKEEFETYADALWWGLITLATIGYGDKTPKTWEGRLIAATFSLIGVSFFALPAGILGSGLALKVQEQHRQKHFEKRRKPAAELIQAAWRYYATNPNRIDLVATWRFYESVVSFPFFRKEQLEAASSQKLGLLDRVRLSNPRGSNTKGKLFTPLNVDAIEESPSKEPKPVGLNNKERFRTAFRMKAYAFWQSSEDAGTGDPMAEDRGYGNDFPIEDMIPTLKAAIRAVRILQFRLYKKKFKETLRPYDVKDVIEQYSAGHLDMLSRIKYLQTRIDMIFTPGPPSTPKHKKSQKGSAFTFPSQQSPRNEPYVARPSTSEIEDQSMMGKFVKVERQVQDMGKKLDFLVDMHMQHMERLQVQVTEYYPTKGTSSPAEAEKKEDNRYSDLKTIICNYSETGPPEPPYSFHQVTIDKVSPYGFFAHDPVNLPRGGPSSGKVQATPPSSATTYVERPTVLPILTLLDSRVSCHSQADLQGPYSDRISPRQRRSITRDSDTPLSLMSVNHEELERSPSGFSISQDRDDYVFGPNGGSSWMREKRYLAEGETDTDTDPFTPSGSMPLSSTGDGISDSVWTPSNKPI
Sequence (O43526 whole entry): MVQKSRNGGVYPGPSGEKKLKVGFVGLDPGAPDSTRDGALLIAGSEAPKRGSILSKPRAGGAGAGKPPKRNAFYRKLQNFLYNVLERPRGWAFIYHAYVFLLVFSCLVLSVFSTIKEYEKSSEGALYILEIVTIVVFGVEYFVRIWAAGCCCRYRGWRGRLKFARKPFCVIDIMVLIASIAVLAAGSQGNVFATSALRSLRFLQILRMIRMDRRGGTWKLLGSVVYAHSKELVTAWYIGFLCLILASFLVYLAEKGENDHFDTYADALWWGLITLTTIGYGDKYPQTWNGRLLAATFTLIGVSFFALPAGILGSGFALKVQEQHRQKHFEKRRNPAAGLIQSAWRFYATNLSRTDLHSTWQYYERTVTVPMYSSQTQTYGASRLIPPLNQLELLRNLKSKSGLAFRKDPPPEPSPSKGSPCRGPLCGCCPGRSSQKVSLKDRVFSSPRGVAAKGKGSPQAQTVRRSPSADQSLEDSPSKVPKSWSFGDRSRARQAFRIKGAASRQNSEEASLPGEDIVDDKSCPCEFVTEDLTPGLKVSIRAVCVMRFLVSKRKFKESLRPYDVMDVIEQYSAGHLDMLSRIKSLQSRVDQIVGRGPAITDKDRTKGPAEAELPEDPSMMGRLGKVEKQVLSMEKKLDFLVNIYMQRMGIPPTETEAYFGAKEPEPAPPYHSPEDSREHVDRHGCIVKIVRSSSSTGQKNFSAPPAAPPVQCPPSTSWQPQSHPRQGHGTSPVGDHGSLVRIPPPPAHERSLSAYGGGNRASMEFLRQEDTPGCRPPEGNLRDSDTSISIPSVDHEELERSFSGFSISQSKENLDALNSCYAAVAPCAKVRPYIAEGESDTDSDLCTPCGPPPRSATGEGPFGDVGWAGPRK
hey, just use label 1 if measured EC50 is less than 5 µM, otherwise label 0

- COMPOUND: "CC(C)c1cc(Cl)cc(Cl)c1C(=O)c1ccc(F)c(CC(=O)NCC(C)(C)O)c1"
  TGT: "hKv7.2/3 (Homo sapiens, UniProt O43525+O43526)"
  QUALITATIVE LABEL: "label 0"

Task: For this compound, is EC50 lower than 5 µM? "O=C(Cc1cncc(-n2cc(Cl)c3cc(Cl)cc(Cl)c32)c1)N[C@@H]1COC[C@@H]1O"
Result: label 0

Task: Hi there! Is EC50 for "COC[C@@H](CO)NC(=O)Cc1cc(Sc2c(Cl)cc(F)cc2C(C)C)ccc1F" below 5 µM, do you know?
Result: label 1

Task: Check if EC50 falls below 5 µM for "COC[C@@H](CO)NC(=O)Cc1cc(Sc2c(Cl)cc(Cl)cc2C(C)C)ccc1F" .
Result: label 1

Task: EC50 strictly < 5 µM for this compound? CC(C)c1cc(Cl)cc(Cl)c1C(O)c1ccc(F)c(CC(=O)NCC2(O)CCC2)c1 (racemic) [Compound 533 racemic]
Result: label 1

Task: Item "Cc1cn(-c2ccc(F)c(CC(=O)NCCO)c2)c2c(Cl)cc(Cl)cc12" : EC50 beneath 5 µM, strictly?
Result: label 0

Task: Does the reported EC50 of "O=C(Cc1cncc(-n2cc(Cl)c3cc(Cl)cc(Cl)c32)c1)NCCO" stay below 5 µM?
Result: label 0

Task: Strictly below 5 µM: is that where EC50 of "Cc1cn(-c2ccc(F)c(CC(=O)NCCOCCOCC(C)(C)O)c2)c2c(Cl)cc(Cl)cc12" sits?
Result: label 1
